Data origin: the supplement of paper PMC12317010

# ASSAY OVERVIEW: collision cross section in nitrogen (drift tube, single-field); higher = larger gas-phase ion size;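 further: chemical standards at 10 µM analysed by drift tube IMS-QTOF MS in about 3.95 torr nitrogen, mean of duplicate injections differing ≤1%, mass error below 10 ppm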
# EXPERIMENTAL CONTEXT: ion type: [M+Na]; ion source: ESI; ion mode: Positive
ATTRIBUTE MEASURED: collision cross section in nitrogen (Å²)
Just the number in Å², nothing appended.

The following compounds have reported results that may help.
- COMPOUND: "CC[C@H]1OC(=O)[C@H](C)[C@@H](O[C@H]2C[C@@](C)(OC)[C@@H](O)[C@H](C)O2)[C@H](C)[C@@H](O[C@@H]2O[C@H](C)C[C@H](N(C)C)[C@H]2O)[C@](C)(O)C[C@@H](C)C(=O)[C@H](C)[C@@H](O)[C@]1(C)O"
  collision cross section in nitrogen / Å²: 262.9
- COMPOUND: "CCCCC(CC)COC(=O)c1ccccc1C(=O)O (centres undefined) [Mono(2-ethylhexyl) phthalate]"
  collision cross section in nitrogen / Å²: 182.1
- COMPOUND: "O=C(O)CCCOC(=O)c1ccccc1C(=O)O [Mono(3-carboxypropyl)phthalate]"
  collision cross section in nitrogen / Å²: 156.3
- COMPOUND: "Cc1ccc2oc(CN(Cc3ccccc3)C(=O)Nc3c(F)cc(F)cc3F)c(-c3ccc(Cl)cc3)c2c1"
  collision cross section in nitrogen / Å²: 226.8

Req: # return recorded collision cross section in nitrogen for input CCCCC(CC)COC(=O)c1ccc(C(=O)OCC(CC)CCCC)c(C(=O)OCC(CC)CCCC)c1 (centres undefined) [Tris(2-ethylhexyl) trimellitate]
Resp: 264.6

Req: Find the measured collision cross section in nitrogen of Cc1ccc(OP(=O)(Oc2ccc(C)cc2C)Oc2ccc(C)cc2C)c(C)c1 [Trixylyl phosphate] and report it.
Resp: 212.6

Req: Recall and state the measured collision cross section in nitrogen for O=C1OC2(c3ccccc31)c1ccc(O)c(Br)c1Oc1c2ccc(O)c1Br .
Resp: 205.5

Req: Answer with the recorded collision cross section in nitrogen of O=P1(NCCCl)OCCCN1CCCl (centres undefined) [Ifosfamide] only.
Resp: 158.1

Req: Please list collision cross section in nitrogen recorded for the compound CC(C)(c1ccccc1)c1cc(-n2nc3ccccc3n2)c(O)c(C(C)(C)c2ccccc2)c1
Resp: 223.4

Req: Return collision cross section in nitrogen for the following compound: COP(=O)(NC(C)=O)SC (centres undefined) [Acephate]
Resp: 141
